Measured values drawn from ChEMBL document CHEMBL1955843 for this set.

# PROTOCOL_TEXT: Cytotoxicity against human HuH7 cells by MTT assay
# Format: cell-based, Huh-7
# MEASUREMENT_CONTEXT: read-out: TD50 (the source's name)
We'd kindly ask you to apply these CC50 classes: c1: < 10 µM; c2: ≥ 10 µM and < 30 µM; c3: ≥ 30 µM

MOL: Cc1ccc(Sc2ccccc2)c(Nc2ncnc3nc(CC(C)C)ccc23)c1
CLASS_LABEL: c1
--
MOL: Cc1ccc(Sc2ccccc2)c(Nc2ccnc3cc(C)ccc23)c1
CLASS_LABEL: c1
--
MOL: Cc1ccc(Sc2ccccc2)c(Nc2ncnc3nc(C(C)C)ccc23)c1
CLASS_LABEL: c1
--
MOL: Cc1ccc(Sc2ccc(O)cc2)c(Nc2ncnc3nc(C(C)(C)C)ccc23)c1
CLASS_LABEL: c1
--
MOL: Cc1ccc(Sc2ccccc2)c(Nc2ncnc3nc(C4CCC4)ccc23)c1
CLASS_LABEL: c1
--
MOL: Cc1ccc(Sc2ccc(NS(C)(=O)=O)cc2)c(Nc2ncnc3nc(C(C)C)ccc23)c1
CLASS_LABEL: c3
--
MOL: Cc1ccc(Sc2ccc(O)cc2)c(Nc2ncnc3nc(C4CC4)ccc23)c1
CLASS_LABEL: c2
--
MOL: CC(=O)Nc1ccc(Sc2ccc(C)cc2Nc2ncnc3nc(C4CCC4)ccc23)cc1
CLASS_LABEL: c3
--
MOL: Cc1ccc(Sc2ccccc2)c(Nc2ccnc3nc(C)ccc23)c1
CLASS_LABEL: c1
--
MOL: Cc1ccc(Sc2ccc(O)cc2)c(Nc2ncnc3nc(CC(C)C)ccc23)c1
CLASS_LABEL: c2
--
MOL: Cc1ccc(Sc2ccc(O)cc2)c(Nc2ncnc3nc(C(C)C)ccc23)c1
CLASS_LABEL: c2
--
MOL: CCCc1ccc2c(Nc3cc(C)ccc3Sc3ccccc3)ncnc2n1
CLASS_LABEL: c2
--
MOL: CC(=O)Nc1ccc(Sc2ccc(C)cc2Nc2ncnc3nc(C(C)C)ccc23)cc1
CLASS_LABEL: c2
--
MOL: CC(=O)Nc1ccc(Sc2ccc(C)cc2Nc2ncnc3nc(C)ccc23)cc1
CLASS_LABEL: c3
--
MOL: Cc1ccc(Sc2ccc(O)cc2)c(Nc2ncnc3nc(N4CCOCC4)ncc23)c1
CLASS_LABEL: c3
--
MOL: CCc1ccc2c(Nc3cc(C)ccc3Sc3ccccc3)ncnc2n1
CLASS_LABEL: c2
--
MOL: CCc1ccc2c(Nc3cc(C)ccc3Sc3ccc(O)cc3)ncnc2n1
CLASS_LABEL: c3
--
MOL: CC(=O)Nc1ccc(Sc2ccc(C)cc2Nc2ncnc3nc(CC(C)C)ccc23)cc1
CLASS_LABEL: c3
--
MOL: Cc1ccc(Sc2ccc(O)cc2)c(Nc2ncnc3nc(C4CCC4)ccc23)c1
CLASS_LABEL: c3
--
MOL: Cc1ccc(Sc2ccccc2)c(Nc2ncnc3nc(C)ccc23)c1
CLASS_LABEL: c2
--
MOL: CCSc1ncc2c(Nc3cc(C)ccc3Sc3ccc(O)cc3)ncnc2n1
CLASS_LABEL: c3
